Data credit: patent US20130261131A1

- assayDetails: PK study of antifungal nasal spray, plasma level after intranasal dosing
- Assay type: in vivo, Gottingen mini-pigs
- experimentalParameters: both sexes, Gottingen, minipig, plasma, other: intranasal, 24 hour after intranasal dosing, 5% PEG-12 GDM in saline, individual animals; read-out: Posaconazole Level in Mini-pig Plasma
attributeMeasured: concentration at 24 h (ng/mL)
Your answer should be a plain number; it is taken to be in ng/mL.

Request: Which concentration at 24 h reading was recorded for the molecule CC[C@@H]([C@H](C)O)n1ncn(-c2ccc(N3CCN(c4ccc(OC[C@@H]5CO[C@@](Cn6cncn6)(c6ccc(F)cc6F)C5)cc4)CC3)cc2)c1=O [POCZ, posaconazole] ?
Result: 1.86
